Cited source for all entries: patent US6620828B2

Listed compounds paired with reported inhibition at 1 µM
Target: CDK2/Cyclin A complex (Homo sapiens)
Experiment: CDK2/Cyclin A assay
Assay type: biochemical
Details: 1.0 μM; combinatorial library compounds
MEASURE: inhibition at 1 µM (%)

[
  {
    "MOLECULE_SMILES": "Cc1ccc(-c2csc(-c3sc(Nc4ccc(S(N)(=O)=O)cc4)nc3N)n2)c(C)c1",
    "EXPERIMENTAL_TARGET": "CDK2/Cyclin A complex (Homo sapiens)",
    "QUANTITATIVE_READOUT": 19.6
  },
  {
    "MOLECULE_SMILES": "CC(C)c1ccc(Nc2nc(N)c(-c3nc(-c4ccc5c(c4)CCC(=O)N5)cs3)s2)cc1",
    "EXPERIMENTAL_TARGET": "CDK2/Cyclin A complex (Homo sapiens)",
    "QUANTITATIVE_READOUT": 29.1
  },
  {
    "MOLECULE_SMILES": "CC(C)c1ccc(Nc2nc(N)c(-c3nc(-c4ccc(Cl)cc4Cl)cs3)s2)cc1",
    "EXPERIMENTAL_TARGET": "CDK2/Cyclin A complex (Homo sapiens)",
    "QUANTITATIVE_READOUT": 25.7
  },
  {
    "MOLECULE_SMILES": "Nc1nc(Nc2ccc(S(N)(=O)=O)cc2)sc1-c1nc(-c2ccc(O)c(O)c2)cs1",
    "EXPERIMENTAL_TARGET": "CDK2/Cyclin A complex (Homo sapiens)",
    "QUANTITATIVE_READOUT": 55.9
  },
  {
    "MOLECULE_SMILES": "Nc1nc(Nc2ccc(S(N)(=O)=O)cc2)sc1-c1nc(-c2ccc[nH]2)cs1",
    "EXPERIMENTAL_TARGET": "CDK2/Cyclin A complex (Homo sapiens)",
    "QUANTITATIVE_READOUT": 14.6
  },
  {
    "MOLECULE_SMILES": "CC(C)c1ccc(Nc2nc(N)c(-c3nc(-c4ccc([N+](=O)[O-])cc4)cs3)s2)cc1",
    "EXPERIMENTAL_TARGET": "CDK2/Cyclin A complex (Homo sapiens)",
    "QUANTITATIVE_READOUT": 17.8
  },
  {
    "MOLECULE_SMILES": "COc1ccc(OC)c(-c2csc(-c3sc(Nc4ccc(S(N)(=O)=O)cc4)nc3N)n2)c1",
    "EXPERIMENTAL_TARGET": "CDK2/Cyclin A complex (Homo sapiens)",
    "QUANTITATIVE_READOUT": 28.4
  },
  {
    "MOLECULE_SMILES": "Nc1nc(Nc2ccc(S(N)(=O)=O)cc2)sc1-c1nc(-c2cc3cc(Cl)ccc3o2)cs1",
    "EXPERIMENTAL_TARGET": "CDK2/Cyclin A complex (Homo sapiens)",
    "QUANTITATIVE_READOUT": 16.6
  },
  {
    "MOLECULE_SMILES": "Cc1c(-c2csc(-c3sc(Nc4ccc(N(C)C)cc4)nc3N)n2)sc2ccccc12",
    "EXPERIMENTAL_TARGET": "CDK2/Cyclin A complex (Homo sapiens)",
    "QUANTITATIVE_READOUT": 23.3
  }
]

---

Target: phosphorylated VEGF-R2Δ50 (FLVK-P) (Homo sapiens, UniProt P35968, DEL940-989/E990V)
Construct: VEGF-R2Δ50 contains residues 806-939 and 990-1171; made in house; host or cells: baculovirus/insect cells
Sequence (P35968 with tags, fused parts or gaps DEL940-989/E990V limits assumed): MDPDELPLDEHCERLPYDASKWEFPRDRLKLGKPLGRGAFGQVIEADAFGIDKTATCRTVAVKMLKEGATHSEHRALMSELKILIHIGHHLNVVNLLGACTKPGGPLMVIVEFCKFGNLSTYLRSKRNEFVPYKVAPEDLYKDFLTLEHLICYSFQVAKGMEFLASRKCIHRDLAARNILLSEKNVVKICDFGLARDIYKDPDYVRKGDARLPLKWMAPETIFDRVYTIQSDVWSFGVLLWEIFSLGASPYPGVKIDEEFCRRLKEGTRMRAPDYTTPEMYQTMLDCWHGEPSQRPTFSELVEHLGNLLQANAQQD
Experiment: VEGF-R2 coupled spectrophotometric (FLVK-P) assay
Type: biochemical
Conditions: read-out: VEGF % inhibition at 20 μM, 20 μM; combinatorial library compounds
# inhibition at 20 µM annotations

[
  {
    "COMPOUND": "N#Cc1ccc(-c2nc(-c3sc(Nc4ccc(S(N)(=O)=O)cc4)nc3N)cs2)cc1",
    "inhibition at 20 µM": "13%"
  },
  {
    "COMPOUND": "CN(C)c1ccc(Nc2nc(N)c(-c3nc(-c4cccc(Br)c4)cs3)s2)cc1",
    "inhibition at 20 µM": "17%"
  },
  {
    "COMPOUND": "CC(C)c1ccc(Nc2nc(N)c(-c3nc(-c4ccc5oc6ccccc6c5c4)cs3)s2)cc1",
    "inhibition at 20 µM": "39%"
  },
  {
    "COMPOUND": "Nc1nc(Nc2ccc(S(N)(=O)=O)cc2)sc1-c1nc(-c2ccc(OC(=O)c3ccccc3)cc2)cs1",
    "inhibition at 20 µM": "8%"
  },
  {
    "COMPOUND": "CCc1cc2c(cc1-c1csc(-c3sc(Nc4ccc(N(C)C)cc4)nc3N)n1)C(C)(C)CCC2(C)C",
    "inhibition at 20 µM": "17%"
  },
  {
    "COMPOUND": "Cc1onc(-c2ccccc2)c1-c1csc(-c2sc(Nc3ccc(C(C)C)cc3)nc2N)n1",
    "inhibition at 20 µM": "5%"
  },
  {
    "COMPOUND": "CC(C)c1ccc(Nc2nc(N)c(-c3nc(-c4ccc(F)cc4F)cs3)s2)cc1",
    "inhibition at 20 µM": "46%"
  },
  {
    "COMPOUND": "Cc1cc(-c2csc(-c3sc(Nc4ccc(N(C)C)cc4)nc3N)n2)cc(C)c1O",
    "inhibition at 20 µM": "24%"
  },
  {
    "COMPOUND": "CN(C)c1ccc(Nc2nc(N)c(-c3nc(-c4ccc(O)cc4)cs3)s2)cc1",
    "inhibition at 20 µM": "46%"
  },
  {
    "COMPOUND": "Nc1nc(Nc2ccc(S(N)(=O)=O)cc2)sc1-c1nc(-c2ccc([N+](=O)[O-])cc2)cs1",
    "inhibition at 20 µM": "3%"
  },
  {
    "COMPOUND": "CCOC(=O)c1cc(-c2csc(-c3sc(Nc4ccc(N(C)C)cc4)nc3N)n2)on1",
    "inhibition at 20 µM": "9%"
  },
  {
    "COMPOUND": "Cc1c(C)c(C)c(-c2csc(-c3sc(Nc4ccc(C(C)C)cc4)nc3N)n2)c(C)c1C",
    "inhibition at 20 µM": "59%"
  },
  {
    "COMPOUND": "Cc1onc(-c2ccccc2)c1-c1csc(-c2sc(Nc3ccc(S(N)(=O)=O)cc3)nc2N)n1",
    "inhibition at 20 µM": "-2%"
  },
  {
    "COMPOUND": "CN(C)c1ccc(Nc2nc(N)c(-c3nc(-c4ccc(C#N)cc4)cs3)s2)cc1",
    "inhibition at 20 µM": "11%"
  },
  {
    "COMPOUND": "Nc1nc(Nc2ccc(S(N)(=O)=O)cc2)sc1-c1nc(-c2ccccc2)cs1 [drawing 421]",
    "inhibition at 20 µM": "23%"
  },
  {
    "COMPOUND": "Cc1cc(-c2csc(-c3sc(Nc4ccc(S(N)(=O)=O)cc4)nc3N)n2)ccc1Cl",
    "inhibition at 20 µM": "2%"
  },
  {
    "COMPOUND": "CCN(CC)c1ccc(-c2csc(-c3sc(Nc4ccc(N(C)C)cc4)nc3N)n2)cc1",
    "inhibition at 20 µM": "16%"
  },
  {
    "COMPOUND": "Nc1nc(Nc2ccc(S(N)(=O)=O)cc2)sc1-c1nc(-c2cccc(Br)c2)cs1",
    "inhibition at 20 µM": "15%"
  },
  {
    "COMPOUND": "CC(C)c1ccc(Nc2nc(N)c(-c3nc(-c4ccc5c(c4)CCC(=O)N5)cs3)s2)cc1",
    "inhibition at 20 µM": "21%"
  },
  {
    "COMPOUND": "COc1ccc(-c2csc(-c3sc(Nc4ccc(C(C)C)cc4)nc3N)n2)cc1 [drawing 462]",
    "inhibition at 20 µM": "19%"
  },
  {
    "COMPOUND": "COc1ccc(OC)c(-c2csc(-c3sc(Nc4ccc(S(N)(=O)=O)cc4)nc3N)n2)c1",
    "inhibition at 20 µM": "8%"
  },
  {
    "COMPOUND": "Cc1c(F)cc(-c2csc(-c3sc(Nc4ccc(S(N)(=O)=O)cc4)nc3N)n2)cc1Cl [drawing 440]",
    "inhibition at 20 µM": "5%"
  },
  {
    "COMPOUND": "CC(C)c1ccc(Nc2nc(N)c(-c3nc(-c4ccc5c(c4)C(C)(C)CCC5(C)C)cs3)s2)cc1",
    "inhibition at 20 µM": "19%"
  },
  {
    "COMPOUND": "CCCCCc1ccc(-c2csc(-c3sc(Nc4ccc(C(C)C)cc4)nc3N)n2)cc1",
    "inhibition at 20 µM": "-14%"
  },
  {
    "COMPOUND": "CN(C)c1ccc(Nc2nc(N)c(-c3nc(-c4ccc(Cl)c(Cl)c4)cs3)s2)cc1",
    "inhibition at 20 µM": "0%"
  },
  {
    "COMPOUND": "Nc1nc(Nc2ccc(S(N)(=O)=O)cc2)sc1-c1nc(-c2c(Cl)c(Cl)nc(Cl)c2Cl)cs1",
    "inhibition at 20 µM": "11%"
  },
  {
    "COMPOUND": "Cc1c(F)cc(-c2csc(-c3sc(Nc4ccc(N(C)C)cc4)nc3N)n2)cc1Cl",
    "inhibition at 20 µM": "9%"
  },
  {
    "COMPOUND": "CCc1cc2c(cc1-c1csc(-c3sc(Nc4ccc(C(C)C)cc4)nc3N)n1)C(C)(C)CCC2(C)C",
    "inhibition at 20 µM": "13%"
  },
  {
    "COMPOUND": "CCc1cc2c(cc1-c1csc(-c3sc(Nc4ccc(S(N)(=O)=O)cc4)nc3N)n1)C(C)(C)CCC2(C)C",
    "inhibition at 20 µM": "-2%"
  },
  {
    "COMPOUND": "CN(C)c1ccc(Nc2nc(N)c(-c3nc(-c4csc5ccccc45)cs3)s2)cc1",
    "inhibition at 20 µM": "22%"
  },
  {
    "COMPOUND": "Nc1nc(Nc2ccc(S(N)(=O)=O)cc2)sc1-c1nc(-c2ccc(-c3ccccc3)cc2)cs1 [drawing 404]",
    "inhibition at 20 µM": "-3%"
  },
  {
    "COMPOUND": "CN(C)c1ccc(Nc2nc(N)c(-c3nc(-c4ccc(CC(=O)O)s4)cs3)s2)cc1",
    "inhibition at 20 µM": "28%"
  },
  {
    "COMPOUND": "Nc1nc(Nc2ccc(S(N)(=O)=O)cc2)sc1-c1nc(-c2c(Cl)cc(C(F)(F)F)cc2Cl)cs1",
    "inhibition at 20 µM": "9%"
  },
  {
    "COMPOUND": "Nc1nc(Nc2ccc(S(N)(=O)=O)cc2)sc1-c1nc(-c2ccc(O)c(O)c2)cs1",
    "inhibition at 20 µM": "49%"
  },
  {
    "COMPOUND": "Nc1nc(Nc2ccc(S(N)(=O)=O)cc2)sc1-c1nc(-c2ccc(CC(=O)O)s2)cs1",
    "inhibition at 20 µM": "11%"
  },
  {
    "COMPOUND": "CC(C)c1ccc(Nc2nc(N)c(-c3nc(-c4c(Cl)c(Cl)nc(Cl)c4Cl)cs3)s2)cc1",
    "inhibition at 20 µM": "30%"
  }
]
